molecular target: T1, Recombinant Human FGFR2 alpha (IIIc) Fc Chimera Protein, CF (R&D systems, 712-FR-050) (human, UniProt P21802 22-377); assay: ELISA on plate-bound FGFR2-Fc
T1 construct: bought; not shown: Fc part of the chimera
T1 sequence (P21802 22-377, change not shown): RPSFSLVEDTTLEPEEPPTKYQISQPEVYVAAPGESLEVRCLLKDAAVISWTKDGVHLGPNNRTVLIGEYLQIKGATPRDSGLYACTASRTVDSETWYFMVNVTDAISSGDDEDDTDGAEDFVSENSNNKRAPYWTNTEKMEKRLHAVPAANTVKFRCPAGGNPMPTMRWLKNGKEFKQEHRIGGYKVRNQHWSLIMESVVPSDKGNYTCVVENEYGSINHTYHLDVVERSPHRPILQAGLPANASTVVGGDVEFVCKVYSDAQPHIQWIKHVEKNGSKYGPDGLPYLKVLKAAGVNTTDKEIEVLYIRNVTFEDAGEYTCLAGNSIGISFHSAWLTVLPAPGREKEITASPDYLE
Bridge positions count the residues as written; N and C are the ends. Ends that are not written are not given here. COCH2 = acetyl group that carries the bridge
A collection of binders and their measured ELISA luminescence signal at 10 nmol/L peptide, relative to SEQ ID NO: 47 (=1)

Some solved entries appear below for comparison.
• YCHENYLDPEQHQYFHYFK(COCH2)Y (thioether 2-19) [cyclic peptide SEQ ID NO: 393] = 0.1 to 0.5 ratio
• QCPQNFINPVQVRYFQHYK(COCH2)N (thioether 2-19) [cyclic peptide SEQ ID NO: 102] = 0.1 to 0.5 ratio
• YCEKNYLDPEQYQYFIYFK(COCH2)Y (thioether 2-19; not fully specified; printed as Y-(C)-EKNYLDPEQYQYFIYF-(K(acetyl))-Y) [cyclic peptide SEQ ID NO: 337] = ≥ 0.7 ratio

Input: Give the reported ELISA luminescence signal at 10 nmol/L peptide, relative to SEQ ID NO: 47 (=1) for this binder. KCPQNFINPVQWAYFQHYKN (not fully specified; thioether ring (C)-(K(acetyl))) [cyclic peptide SEQ ID NO: 63]
Output: ≥ 0.7 ratio

Input: Determine its reported ELISA luminescence signal at 10 nmol/L peptide, relative to SEQ ID NO: 47 (=1): YCEENYLKPEQYQYFIYFK(COCH2)Y (thioether 2-19; not fully specified; printed as Y-(C)-EENYLKPEQYQYFIYF-(K(acetyl))-Y) [cyclic peptide SEQ ID NO: 340]
Output: 0.1 to 0.5 ratio

Input: Please list ELISA luminescence signal at 10 nmol/L peptide, relative to SEQ ID NO: 47 (=1) recorded for the binder YCEENYYDPEQYQYFIYFK(COCH2)Y (thioether 2-19 (inferred)) [cyclic peptide SEQ ID NO: 198]
Output: ≥ 0.7 ratio
